- Tested on: 565726-208-R1-J5-PDC complex spheroids, growth inhibition;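 further: spheroids exposed to compounds for seven days before readout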
- assay: Anticancer human tumor 565726-208-R1-J5-PDC patient-derived pancreatic adenocarcinoma cell line growth inhibition [RAS]; active means viability on the fitted dose curve at most 10% of control; inactive means the rest
- test conditions: second compound 0.0949 µM; first compound 1 µM
Pick from active, inactive when you respond.

See these solved cases before continuing.
{"columns": ["molecule", "assigned category"],
 "data": [
  ["NC1c2ccccc2OC12CCN(c1cnc3c(N4CCCc5ncccc54)n[nH]c3n1)CC2 (stereo not drawn) + CCn1c(-c2cccnc2C(C)OC)c2c3cc(ccc31)N1CCOC(CC(NC(=O)C(C(C)C)N(C)C(=O)C3(F)CCN(C(=O)C#CC(C)(C)N(C)C)CC3)C(=O)N3CCCC(N3)C(=O)OCC(C)(C)C2)C1", "inactive"],
  ["NC1c2ccccc2OC12CCN(c1cnc3c(N4CCCc5ncccc54)n[nH]c3n1)CC2 (stereo not drawn) + CCn1c(-c2cc(N3CCN(C)CC3)cnc2C(C)OC)c2c3cc(ccc31)-c1csc(n1)CC(NC(=O)C1CC1C)C(=O)N1CCCC(N1)C(=O)OCC(C)(C)C2", "inactive"],
  ["C=CC(=O)Nc1cc(Nc2nccc(-c3cn(C)c4ccccc34)n2)c(OC)cc1N(C)CCN(C)C + CCn1c(-c2cccnc2C(C)OC)c2c3cc(ccc31)N1CCOC(CC(NC(=O)C(C(C)C)N(C)C(=O)C3(F)CCN(C(=O)C#CC(C)(C)N(C)C)CC3)C(=O)N3CCCC(N3)C(=O)OCC(C)(C)C2)C1", "inactive"],
  ["Nc1ccn(C2OC(CO)C(O)C2(F)F)c(=O)n1 (stereo not drawn) + CCn1c(-c2cc(N3CCN(C)CC3)cnc2C(C)OC)c2c3cc(ccc31)-c1csc(n1)CC(NC(=O)C1CC1C)C(=O)N1CCCC(N1)C(=O)OCC(C)(C)C2", "inactive"],
  ["O=C(c1ccc(F)c(F)c1Nc1ccc(I)cc1F)N1CC(O)([C@@H]2CCCCN2)C1 + CCn1c(-c2cc(N3CCN(C)CC3)cnc2C(C)OC)c2c3cc(ccc31)-c1csc(n1)CC(NC(=O)C1CC1C)C(=O)N1CCCC(N1)C(=O)OCC(C)(C)C2", "active"]
]}

Request: What was the test verdict on C=CC(=O)N1CCN(c2nc(OCC3CCCN3C)nc3c(F)c(-c4nc(N)cc(C)c4C(F)(F)F)c(Cl)cc23)C(C)C1 (stereo not drawn) + CCn1c(-c2cc(N3CCN(C)CC3)cnc2C(C)OC)c2c3cc(ccc31)-c1csc(n1)CC(NC(=O)C1CC1C)C(=O)N1CCCC(N1)C(=O)OCC(C)(C)C2 ?
Result: inactive

Request: What was the test verdict on CCN1CCN(Cc2ccc(Nc3ncc(F)c(-c4cc(F)c5nc(C)n(C(C)C)c5c4)n3)nc2)CC1 + CCn1c(-c2cc(N3CCN(C)CC3)cnc2C(C)OC)c2c3cc(ccc31)-c1csc(n1)CC(NC(=O)C1CC1C)C(=O)N1CCCC(N1)C(=O)OCC(C)(C)C2 ?
Result: inactive

Request: What was the test verdict on CCC(CC)c1cc(NC2CCC(N)C2)n2nccc2n1 (stereo not drawn) + CCn1c(-c2cccnc2C(C)OC)c2c3cc(ccc31)N1CCOC(CC(NC(=O)C(C(C)C)N(C)C(=O)C3(F)CCN(C(=O)C#CC(C)(C)N(C)C)CC3)C(=O)N3CCCC(N3)C(=O)OCC(C)(C)C2)C1 ?
Result: inactive
